Tested on: NOMO1
Test: cell viability relative to DMSO control; higher = less cytotoxic
Details: RPMI 5 mM glucose + 10% FBS; 48 h; 5.12 µM
measured property: cell viability (%)
Give bare numbers, in %.

- NC(=O)c1ncn([C@@H]2O[C@H](CO)[C@@H](O)[C@H]2O)c1O: 112

Below are 2 compounds. Give each one its cell viability.
1. CN1CCN(CCCN2c3ccccc3Sc3ccc(C(F)(F)F)cc32)CC1
2. COc1cc(/C=C/C(=O)O)ccc1O

Response:
18.7
107

Below are 2 compounds. Give each one its cell viability.
1. COC(=O)\C1=C\CCN(C)C1
2. CO/N=C(/C(=O)N[C@@H]1C(=O)N2C(C(=O)O)=C(CSC(=O)c3ccco3)CS[C@H]12)c1csc(N)n1

Response:
93.6
90.9

---

Please go through the items and note down their cell viability.
Tested on: P12-Ichikawa
Test: cell viability relative to DMSO control; higher = less cytotoxic
Conditions: HPLM + 10% dialyzed FBS; 48 h; 0.0211 µM
Answers are plain numbers, in %.

Please review the following examples before continuing.
* COc1cc(N2CCC(N(C)C)CC2)ccc1Nc1ncc(Cl)c(Nc2ccccc2P(C)(C)=O)n1 | 113
* C[C@H]1O[C@H](C[C@H](O)[C@@H]1O)O[C@H]2[C@@H](O)C[C@@H](O[C@@H]2C)O[C@H]3[C@@H](O)C[C@@H](O[C@@H]3C)O[C@H]4CC[C@@]5(C)[C@H](CC[C@@H]6[C@@H]5C[C@@H](O)[C@]7(C)[C@H](CC[C@]67O)C/8=C/C(=O)OC8)C4 | 111

Attention now shifts to the item below.
Request: Dear colleague, please send me the reported cell viability for `N[S+](=O)([O-])OC[C@@H]1C[C@@H](n2ccc3c(N[C@H]4CCc5ccccc54)ncnc32)C[C@@H]1O` when you can.
Response: 102

---

System: NOMO1
Test: cell viability relative to DMSO control; higher = less cytotoxic
Conditions: RPMI 5 mM glucose + 10% dialyzed FBS; 48 h; 0.000781 µM
measured property: cell viability
Please answer in the form of a number followed by its unit of measurement.

Below are 4 compounds. Give each one its cell viability.
1. CN(C)CCN1C(=O)c2cccc3cc(N)cc(c23)C1=O
2. COc1ncc(-c2ccc3c(Nc4cc(Oc5cc(F)cc(F)c5)cc(C(=O)O)c4)c([S+](=O)([O-])NC4CC4)cnc3c2)c(OC)n1
3. CC1(C)C(N(O)C(=O)Nc2ccc(Cl)cc2)N(c2ccc(Cl)cc2)C(=O)N1CC(=O)N/N=C/C=C/c1ccc([N+](=O)[O-])o1 (stereo not given)
4. OC(CN1CCN(c2cccc(Cl)c2)CC1)C(c1ccccc1)c1ccccc1 (stereo not given)

Response:
["99.2%", "97.2%", "106%", "124%"]

Below are 5 compounds. Give each one its cell viability.
1. NC/1=N/C(=O)N(/C=N1)[C@@H]2O[C@H](CO)[C@@H](O)[C@H]2O
2. Cc1c[nH]c(-c2cnc(NCCNc3ccc(C#N)cn3)nc2-c2ccc(Cl)cc2Cl)n1
3. CC(C)(O)c1cc2nc(-c3cnc(N)nc3)nc(N3CCOCC3)c2s1
4. C[C@]12CC[C@H]3[C@@H](CCC/4=C/C(=O)CC[C@]34C)[C@@H]1CC[C@@H]2OC(=O)CCC5CCCC5
5. CN(C)C1=C(Br)C=C(C=C1)C\2NC3=C(\C4=C2C(=O)CC(C)(C)C4)C5=CC=CC=C5C=C3 (stereo not given)

Response:
["110%", "76.7%", "121%", "94.6%", "75.9%"]

Request: Dear colleague, please send me the reported cell viability for `CC/1=C(\O)C(=O)\C=C2/C1=C/C=C3\[C@@]2(C)CC[C@@]4(C)[C@@H]5C[C@@](C)(CC[C@]5(C)CC[C@]34C)C(O)=O` when you can.
Response: 108%

---

Tested on: NOMO1
Experiment: cell viability relative to DMSO control; higher = less cytotoxic
Details: HPLM + 10% dialyzed FBS; 48 h; 0.569 µM
measured property: cell viability (%)
One number for each entry, in %.

- N[S+](=O)([O-])OC[C@@H]1C[C@@H](n2ccc3c(N[C@H]4CCc5ccccc54)ncnc32)C[C@@H]1O: 70.8

Below are 5 compounds. Give each one its cell viability.
1. C[C@]12CC[C@H]3[C@@H](CCC/4=C/C(=O)CC[C@]34C)[C@@H]1CC[C@@H]2OC(=O)CCC5CCCC5
2. CC(C)(O)/C=C\C(=O)[C@](C)(O)[C@H]1[C@H](O)C[C@]2(C)[C@@H]3CC=C4[C@@H](C=C(O)C(=O)C4(C)C)[C@]3(C)C(=O)C[C@@]12C
3. CN1CCN(CCOc2cc(OC3CCOCC3)c3c(Nc4c(Cl)ccc5c4OCO5)ncnc3c2)CC1
4. C[C@]12CCC\3=C\4CCC(=O)\C=C4CC[C@H]3[C@@H]1CC[C@@]2(O)CC#N
5. N=C1N[C@H]2[C@H](CS[C@H]2CCCCC(=O)O)N1

Response:
1. 118
2. 18.8
3. 134
4. 138
5. 146

---

Tested on: SEM cells
Experiment: cell viability relative to DMSO control; higher = less cytotoxic
Conditions: RPMI 5 mM glucose + 10% dialyzed FBS; 48 h; 5.12 µM
Checkbox rule: cell viability lower than 80% = YES; cell viability not lower than 80% = NO.

Solved entries:
* CC(C)(C)[C@H](NC(=O)c1ccc(N)c(Cl)c1)C(=O)N1CCC[C@H]1C(=O)N[C@H](C#N)CC(=O)O | NO
* OCc1ccc(-c2ccc(-c3ccc(CO)s3)o2)s1 | NO
* CCOc1ccc(Cc2cc([C@@H]3O[C@H](CO)[C@@H](O)[C@H](O)[C@H]3O)ccc2Cl)cc1 | NO

Request: Criterion: cell viability strictly below 80%. Is it met by CC/1=C(/N2[C@H](SC1)[C@H](NC(=O)C(N)C3=CC=CC=C3)C2=O)C(O)=O (stereo partly drawn) ?
Response: NO

Request: Criterion: cell viability strictly below 80%. Is it met by `C[C@@]1(C(=O)Nc2ccc(F)nc2)CCCN1c1nc(Nc2cc(C3CC3)[nH]n2)c2cccn2n1` ?
Response: YES

Request: Criterion: cell viability strictly below 80%. Is it met by `CCN1CCN(C(=O)Cc2ccc(Nc3ncc(F)c(Nc4ccc(C(=O)Nc5ccccc5Cl)cc4)n3)cc2)CC1` ?
Response: YES

Request: Criterion: cell viability strictly below 80%. Is it met by `COc1ccc2cc1Oc1ccc(cc1)C[C@H]1c3cc(c(OC)cc3CCN1C)Oc1c(OC)c(OC)cc3c1[C@H](C2)N(C)CC3` ?
Response: NO

---

Tested on: NOMO1
Assay: cell viability relative to DMSO control; higher = less cytotoxic
Details: RPMI 5 mM glucose + 10% dialyzed FBS; 48 h; 0.0211 µM
measured property: cell viability (%)
One number for each entry, in %.

Please review the following examples before continuing.
* CCOC(=O)/C=C/[C@H](C[C@@H]1CCNC1=O)NC(=O)[C@@H](CC(=O)[C@@H](NC(=O)c1cc(C)on1)C(C)C)Cc1ccc(F)cc1 | 118
* COC1=CC=C2CN(C)CC[C@@]34\C=C/[C@H](O)C[C@@H]3OC1=C24 | 119
* CCOC(=O)\C1=C\[C@@H](OC(CC)CC)[C@H](NC(C)=O)[C@@H](N)C1 | 87.4

Below are 5 molecules. Give each one its cell viability.
1. O=C(/C=C/c1ccc(O)cc1)c1ccc(O)cc1O
2. O=C(Nc1cccnn1)N1CCC(=Cc2cccc(Oc3ccc(C(F)(F)F)cn3)c2)CC1
3. CCN1CCN(C(=O)Cc2ccc(Nc3ncc(F)c(Nc4ccc(C(=O)Nc5ccccc5Cl)cc4)n3)cc2)CC1
4. OC1=CC2=C(C(=C1)O)C(=O)\C(=C(/O2)C3=CC(=C(O)C=C3)O)O
5. COC1=CC=C2/C3=N/CCN3\C(=N/C2=C1OC)NC(=O)C4=CC=CN=C4

Response:
106
75.4
117
107
127

---

Please go through the items and note down their AUC of viability dose-response curve.
Test system: P12-Ichikawa
Experiment: AUC of viability dose-response curve (% viability x log10 dose units); higher = less sensitive
Conditions: RPMI 5 mM glucose + 10% dialyzed FBS; 48 h
One number for each entry.

Please review the following examples before continuing.
* C[C@H]1COC/2=C1/C(=O)C(=O)C3=C4CCCC(C)(C)C4=CC=C23 | 473
* c1ccc(-c2oc3ncnc(NC[C@@H]4CCCO4)c3c2-c2ccccc2)cc1 | 455
* CN(C)C1=C(Br)C=C(C=C1)C\2NC3=C(\C4=C2C(=O)CC(C)(C)C4)C5=CC=CC=C5C=C3 (stereo not drawn) | 459
* COC(=O)N1CC2(CC2)C[C@H](C(=O)NO)[C@H]1C(=O)N1CCN(c2ccccc2)CC1 | 324
* OCCC#Cc1nc(-c2ccc(F)cc2)c(-c2ccncc2)n1CCCc1ccccc1 | 468

Below are 7 compounds. Give each one its AUC of viability dose-response curve.
1. Cc1c[nH]c(-c2cnc(NCCNc3ccc(C#N)cn3)nc2-c2ccc(Cl)cc2Cl)n1
2. OC(CN1CCN(c2cccc(Cl)c2)CC1)C(c1ccccc1)c1ccccc1 (stereo not drawn)
3. C[C@H]1O[C@H]([C@H](O)[C@@H]1O)N2\C=C(F)/C(=O)NC2=O
4. Cn1cc(-c2ccc(F)c(C(F)(F)F)c2)nc1C1CCN(c2ncnc3[nH]ncc23)CC1
5. OC1=CC2=C(C(=C1)O)C(=O)\C(=C(/O2)C3=CC(=C(O)C=C3)O)O
6. C[C@](N)(Cc1ccc(O)c(O)c1)C(=O)O
7. CCOC1=CC=CC=C1N\2C(=O)C3=C(C=CC=C3)\N=C2C(C)N4CCN(CC4)C(=O)COC5=CC=C(Cl)C=C5 (stereo not drawn)

Response:
1: 379; 2: 307; 3: 442; 4: 446; 5: 469; 6: 398; 7: 320

Below are 2 compounds. Give each one its AUC of viability dose-response curve.
1. COc1ccccc1N1CCN(CCN(C(=O)C2CCCCC2)c2ccccn2)CC1
2. OC[C@H]1O[C@@H]2[C@@H](OC\3=N\C(=N)\C=C/[N@@]23)[C@@H]1O

Response:
473
251
